Rule: intrinsic clearance, human liver microsomes under 2 L/h/kg gives F, otherwise T.

Task item: Please indicate if the recorded intrinsic clearance, human liver microsomes for Cc1nc(NCc2sccc2C)n(C)n1 meets or exceeds 2 L/h/kg.
Reply: F

Task item: Check this molecule for intrinsic clearance, human liver microsomes at or above 2 L/h/kg: Cc1noc(NCc2ccc(F)cc2C)n1
Reply: F

Task item: Answer whether intrinsic clearance, human liver microsomes of O=C(CCCc1ccc(F)cc1)N1CCN(c2ccccc2)C(=O)C1 is greater than or equal to 2 L/h/kg.
Reply: F

Task item: Check this molecule for intrinsic clearance, human liver microsomes at or above 2 L/h/kg: N#CCNC(=O)c1ccc(C#N)c(Cl)c1
Reply: F

Task item: Has CC(=O)Nc1ccc(C(=O)N2CCCCC2c2nc(N)ncc2-c2cccc(Cl)c2)cc1 (stereo unspecified) a recorded intrinsic clearance, human liver microsomes greater than or equal to 2 L/h/kg?
Reply: T

Task item: Textbook exercise: given the entry Cc1cccc(NC(=O)CSc2nncs2)c1 , state whether its intrinsic clearance, human liver microsomes is greater than or equal to 2 L/h/kg.
Reply: F

Task item: Hi team, for Cc1ccc(CNC(=O)CN2CCC(n3nnc4cc(C(F)(F)F)ccc43)CC2)cc1 , is the recorded intrinsic clearance, human liver microsomes at or above 2 L/h/kg?
Reply: T

Task item: // inclusive: intrinsic clearance, human liver microsomes at least 2 L/h/kg? input: CCc1nc(C(N)=O)c(Nc2ccc(N3CCC(N4CCN(C)CC4)CC3)c(OC)c2)nc1NC1CCOCC1
Reply: F

Task item: Please indicate if the recorded intrinsic clearance, human liver microsomes for O=c1ccc(-c2ccc(F)cc2)nn1Cc1ccncc1 meets or exceeds 2 L/h/kg.
Reply: F

Task item: Determine whether this molecule has intrinsic clearance, human liver microsomes no lower than 2 L/h/kg: CCN1CCN(Cc2ccc(Nc3ncc(F)c(-c4cc(F)c5nc(C)n(C(C)C)c5c4)n3)nc2)CC1.CS(=O)(=O)O
Reply: T

Task item: Exam item: decide whether the reported intrinsic clearance, human liver microsomes for O=C(O)CCn1c2ccccc2c2ccccc21 is at least 2 L/h/kg.
Reply: F

Task item: Form field: intrinsic clearance, human liver microsomes at least 2 L/h/kg? Entry: COc1ccc(-c2cn3c4ccccc4nc3n2CCO)cc1
Reply: T

Task item: Please check the record Cc1ccc(C(=O)N2CCN(C(=O)NCC(=O)N3CCCC3)CC2)cc1F and state if its intrinsic clearance, human liver microsomes is at or above 2 L/h/kg.
Reply: F

Task item: Hello, I need to know if Fc1ccc2[nH]c(CO[C@H]3CN(Cc4ccccc4)C[C@H]3F)nc2c1 has measured intrinsic clearance, human liver microsomes not below 2 L/h/kg. Thanks!
Reply: T

Task item: Would you say CC[C@@H]1[C@H](F)C(=O)N[C@@H]1COc1nccc2cc(C(N)=O)c(OC)cc12 shows intrinsic clearance, human liver microsomes at minimum 2 L/h/kg?
Reply: T

Task item: Please check the record CC(C)c1noc(-c2ccc(N)cc2)n1 and state if its intrinsic clearance, human liver microsomes is at or above 2 L/h/kg.
Reply: T

Task item: Determine whether this molecule has intrinsic clearance, human liver microsomes no lower than 2 L/h/kg: O=C(NC1=NS(=O)(=O)c2ccccc21)c1cc(-c2ccc(F)cc2)no1
Reply: T

Task item: Decide: intrinsic clearance, human liver microsomes of CC1(C)Oc2ccc(Cl)cc2[C@@H]2O[C@@H]3CCNC[C@@H]3C[C@H]21 >= 2 L/h/kg?
Reply: F

Task item: Please tell me: is the molecule COc1ccc(F)cc1-c1ccc(-c2nnco2)cc1 at or over 2 L/h/kg in terms of intrinsic clearance, human liver microsomes?
Reply: F

Task item: Decide: intrinsic clearance, human liver microsomes of Cc1cc(C(=O)Nc2cccc3ncccc23)on1 >= 2 L/h/kg?
Reply: F

Task item: Dear colleague, could you confirm whether O=c1[nH]c2ccccc2n1C1CCN(Cc2coc(-c3cccs3)n2)CC1 has intrinsic clearance, human liver microsomes at or above 2 L/h/kg?
Reply: F

Task item: Assess whether reported intrinsic clearance, human liver microsomes for O=C(O)c1cnn(-c2nc3cc(Cl)c(OC(F)(F)F)cc3[nH]2)c1 sits at 2 L/h/kg or higher.
Reply: F

Task item: Reported intrinsic clearance, human liver microsomes reaches at least 2 L/h/kg for CC(C)c1nc2c(n1C)CCN(c1ncnc3ccsc13)C2 ?
Reply: F

Task item: Check if intrinsic clearance, human liver microsomes >= 2 L/h/kg (inclusive). Item: COc1ccccc1C(=O)Nc1cccc(C#N)c1
Reply: T

Task item: Form field: intrinsic clearance, human liver microsomes at least 2 L/h/kg? Entry: COc1cccc(OCCCN)c1-c1cc(Nc2cnc(C#N)cn2)n[nH]1
Reply: F

Every entry's value here was drawn from the Biogen ADME set (Fang et al. 2023).
